# System: MS2 coat protein
# test description: apparent KD of MS2 coat protein; designed switch direction (-1 OFF switch, 1 ON switch): 1; higher = weaker reporter binding
# measurement parameters: input ligand: none
Decide by apparent KD of MS2 coat protein: equal to or exceeding 100 nM means T, less means F.

Sample answers from the record:
monomer sequence	class label
GCUCGAUGAGAGUCCUACAUGAGGAUCACCCAUGUAUGUGGGCAGGAUAUCUACAUGCAGAAUGUAGAGAAGGGCCCGUCGAGC [SameState NG3 #57] (Eterna round: R96, puzzle: Same State NG 3)	T
GCUAGAAUAAAAGCCAACAUGAGGAUCACCCAUGUAUGUUGGCAGGAUAUCGUAUGCAAAGCAUACGAGAAGGGCCAUACUAGC [Mat - Same State NG 3 - JL Mod - D24] (Eterna round: R96, puzzle: Same State NG 3)	T
CUGAGCAAGCAAGGAUAUCACGUCGUUUAGACGUGAGAAGGUGCUCCUUACAUGAGGAUCACCCAUGUAUAACAUGAAGCUCAG [SSNG1/10-A3] (Eterna round: R96, puzzle: Same State NG 1)	T
GUCCAAAACACAGGAUAUCCCGGUCAAAAUCCGGGAGAAGGGUGGCCACAUGAGGAUCACCCAUGUGACGUGCGAGAGGCACGA [Diessorire] (Eterna round: R96, puzzle: Same State NG 1)	T
UGGCUCAGAGCAGGAUAUAUGUGGUCACAUGAGGAUCACCCAUGUCUCGAGCUUCGGCUCGAGGCAUAGAAGGGCUCUGAGCCU [SSNG2/5-B3] (Eterna round: R96, puzzle: Same State NG 2)	F
UGAAUAGUUACAGGAUAUCAUGCGAAAAUUGCGUGAGAAGGGUGGGUGUUGUGCGCAAAGUGCUACAUGAGGAUCACCCAUGUU [SameState NG1 #39] (Eterna round: R96, puzzle: Same State NG 1)	T
AUUGCUGUCACAGGAUAUCAUGCGGAAAUCGCGUGAGAAGGGUGGACUCUGUCAUUCACGGAGGACAUGAGGAUCACCCAUGUG [SS NG10LRO19] (Eterna round: R96, puzzle: Same State NG 1)	F
AGCUAUUAAUCAGGAUAUGGUCACAUGAGGAUCACCCAUGUGUAGAUGAUAAAAUGUGGUCUACACUAGAAGGGAUUGCUAACA [SameState NG2 #60] (Eterna round: R96, puzzle: Same State NG 2)	T
GCGGUCUGACAUGAGGAUCACCCAUGUGGAAUAAAUACGGGUUAGGAUAUCUUGAGGAUCACCCAAGAGAAGGGAUGGACCGCU (Eterna round: R96, puzzle: Same State NG 3)	F

Prompt line: Exam item: decide whether the reported apparent KD of MS2 coat protein for CUGAGCAAUCUAGGAUAUCACGUCGAAUAGACGUGAGAAGGAGAUCAUAACAUGAGGAUCACCCAUGUAUUACAUGAAGCUCAG [SSNG1/7-A1] (Eterna round: R96, puzzle: Same State NG 1) is at least 100 nM.
Response line: F

###

Measured apparent KD of MS2 coat protein by item
# Tested on: MS2 coat protein
# test description: apparent KD of MS2 coat protein; higher = weaker reporter binding
# measurement parameters: Eterna round: R107; input ligand: theophylline 2 mM
State the answer as a number, implicitly in nM.

Known apparent KD of MS2 coat protein results, listed for orientation:
monomer sequence	measured
GCCGGGCCCGCGGCCGCCACUGAGAGAGUCGUGUGAACAUGAGGAUCACCCAUGUAAUAUAUAUACAGGACCGGGCGGGCCCGGC [4.X]	15.7
GCAUCCUAGUCGGCCGCCACUGCAAUUGUAGUACUGCUACAUGAACAUGAGGAUCACCCAUGUAGCAGGACCGGGACUAGGAUGC [(Trp1)-(TM)''-(TM)'-(Ms2)-(Trp2)_Design10]	68.5
AUUCAUGGAAACAUGACAUAGGGAUCUAGCCGAGGACCGGUACGGCCGCCACUCGCUUGGAGGCACAUGAGGAUCACCCAUGUUA [SS Tryp A #6]	140

Now look at this one.
Prompt line: apparent KD of MS2 coat protein lookup needed for AAUAAUAUCCUCAUGUGAGUCGUACCGUAACGAGGACCGGUACGGCCGCCACUCGAACAUGAGGAUCACCCAUGUAGGUACGACA [M'-T'-T-MS2-T'' - Design 8] , thanks.
Response line: 238
